# Target entity: Cytochrome P450 2C9 (Homo sapiens)
# Procedure summary: blockers of cytochrome P450 2C9 activity – biochemical, luminescence, ADME assay, primary screen (AID 777)
# Assay conditions: CYP2C9 Supersomes, luciferin-H conversion, at 5 µM, stronger effect = higher value
About 19,000 (20%) of roughly 96,000 compounds were called active. These entries were drawn from the full list.
Experimental readout: inhibition (%)
The reply should contain only the number, in %.

INPUT: Entry CCOC(=O)c1cc2occc2n1CC(=O)NC1CCC(C)CC1 (stereo unspecified) , system Cytochrome P450 2C9 (Homo sapiens): what inhibition was measured?
OUTPUT: 22

INPUT: Return inhibition measured with Cytochrome P450 2C9 (Homo sapiens) given this compound: `O=C(NCc1cn2ccsc2n1)Nc1ccc(Cl)cc1`
OUTPUT: 13.6

INPUT: Value wanted: inhibition (Cytochrome P450 2C9 (Homo sapiens)) of entry `Cc1cccc(COc2ccccc2/C=N/Nc2ccc([N+](=O)[O-])cc2)c1`
OUTPUT: 43.5

INPUT: Form entry - test system: Cytochrome P450 2C9 (Homo sapiens); read-out: inhibition; compound: `C/C(=N/NC(=O)c1cc(Cl)ccc1O)C12CC3CC(CC(C3)C1)C2`
OUTPUT: 24.2

INPUT: # query: inhibition | item `CCN(CC)Cc1cc(C(C)=O)ccc1O` | system: Cytochrome P450 2C9 (Homo sapiens)
OUTPUT: -7.4

INPUT: Cytochrome P450 2C9 (Homo sapiens) / inhibition / `FC(F)(F)c1cc(-c2cccs2)nc(NCc2ccco2)n1` : value?
OUTPUT: 60.7

INPUT: Provide the documented inhibition with Cytochrome P450 2C9 (Homo sapiens) as the system for `CCC(=O)Nc1cccc(NC(=O)CSc2nnc(-c3ccc(NS(C)(=O)=O)cc3)n2C)c1`
OUTPUT: 51.3

INPUT: Test system Cytochrome P450 2C9 (Homo sapiens); read-out inhibition; what value for `O=C(Nc1cccc(OCC(=O)N2CCOCC2)c1)C1CCCCC1` ?
OUTPUT: -6.8

INPUT: Return inhibition measured with Cytochrome P450 2C9 (Homo sapiens) given this compound: `Cc1cc(C(=O)Nc2ccccc2N2CCOCC2)c2ccccc2n1`
OUTPUT: 58.2

INPUT: Identify the measured inhibition of `O=C(CNC(=O)c1ccc(Cl)cc1Cl)NCC(=O)Nc1ccccc1N1CCOCC1` for Cytochrome P450 2C9 (Homo sapiens).
OUTPUT: 57.6

INPUT: Entry `O=S(=O)(Nc1ccccc1N1CCOCC1)c1ccc(Cl)s1` , system Cytochrome P450 2C9 (Homo sapiens): what inhibition was measured?
OUTPUT: 10.6

INPUT: Hello, I am looking for reported inhibition with Cytochrome P450 2C9 (Homo sapiens) for `CCCN(c1ccc(C(C)C)cc1)S(=O)(=O)c1c(C)[nH]c(=O)[nH]c1=O` . Could you help?
OUTPUT: 21.6

INPUT: Provide the documented inhibition with Cytochrome P450 2C9 (Homo sapiens) as the system for `COC(=O)c1ccc(NC(=O)CSc2nnc(CNc3ccc(OC)cc3)n2C)cc1`
OUTPUT: 34

INPUT: Reported inhibition for Cytochrome P450 2C9 (Homo sapiens), given CC1=CC(C)(C)Nc2ccc(OC(=O)CN3C(=O)C4CCCCC4C3=O)cc21 (stereo unspecified) ?
OUTPUT: 10.9

INPUT: Quick check: inhibition on Cytochrome P450 2C9 (Homo sapiens), item `Cn1c(SCC(=O)Nc2cccc(NC(=O)c3cccs3)c2)nnc1-c1ccncc1` ?
OUTPUT: 89.8

INPUT: What value of inhibition on Cytochrome P450 2C9 (Homo sapiens) does `COc1nc(NCc2ccc(Cl)cc2)nc(OC)n1` have?
OUTPUT: 9.7

INPUT: # returns recorded inhibition (system: Cytochrome P450 2C9 (Homo sapiens)) for `O=C(CSc1nc(-c2ccco2)cc(C(F)(F)F)n1)NCc1cccs1`
OUTPUT: 7.6

INPUT: Short answer please: inhibition, Cytochrome P450 2C9 (Homo sapiens), entry `CC1(C)CC(=O)c2sc(N)nc2C1`
OUTPUT: 12.9

INPUT: What is its inhibition for Cytochrome P450 2C9 (Homo sapiens)? Entry: `O=C(NCCCNCc1ccccc1)c1ccc(/C=N/O)nc1`
OUTPUT: -11.5

INPUT: Request - read-out inhibition | tested on Cytochrome P450 2C9 (Homo sapiens) | compound Cc1ccc(C)n1C(Cc1ccccc1)C(=O)O (stereo unspecified)
OUTPUT: 28.3

INPUT: What measured inhibition is associated with `COc1ccc(C(=O)NNC(=O)c2cnccn2)cc1[N+](=O)[O-]` on Cytochrome P450 2C9 (Homo sapiens)?
OUTPUT: 0.1

INPUT: Hi! What's the reported inhibition for O=C(c1ccco1)N1CCN(C(=O)C2CCCN(S(=O)(=O)c3cccc4nsnc34)C2)CC1 (stereo unspecified) on Cytochrome P450 2C9 (Homo sapiens)?
OUTPUT: 12.6

INPUT: # get_value(readout= inhibition, system= Cytochrome P450 2C9 (Homo sapiens)) for `CCn1c(SCC(=O)Nc2nccs2)nnc1-c1ccncc1`
OUTPUT: 28

INPUT: Item: `CCc1ccc(N(CC)c2ncnc3nc[nH]c23)cc1` Test system: Cytochrome P450 2C9 (Homo sapiens) Read-out: inhibition Value: ?
OUTPUT: 3.4

INPUT: Request: inhibition, test system Cytochrome P450 2C9 (Homo sapiens), entry `c1ccc2c(C[n+]3csc4ccccc43)cccc2c1`
OUTPUT: 76.7

INPUT: # value lookup — system Cytochrome P450 2C9 (Homo sapiens), readout inhibition, item `Cc1cccc(NC(=O)c2cc(N3C(=O)CCC3=O)ccc2Cl)n1`
OUTPUT: 20.2

INPUT: Observed inhibition on Cytochrome P450 2C9 (Homo sapiens) for Cc1ccc(C(C(=O)NC2CCCCC2)N(C(=O)c2csnn2)C2CC2)o1 (stereo unspecified) , please.
OUTPUT: 26.6

INPUT: # value lookup — system Cytochrome P450 2C9 (Homo sapiens), readout inhibition, item `O=C(COc1cccc(-n2cnnn2)c1)NCCC1=CCCCC1`
OUTPUT: 79.4

INPUT: Field: inhibition (Cytochrome P450 2C9 (Homo sapiens)). Entry: CS(=O)(=O)N1CCCC(C(=O)N2CCOCC2)C1 (stereo unspecified)
OUTPUT: -11.8

INPUT: Kindly state the measured inhibition obtained for `O=C(NCc1ccc(Cl)c(Cl)c1)c1cccnc1` with Cytochrome P450 2C9 (Homo sapiens).
OUTPUT: 14.6

INPUT: Give recorded inhibition with Cytochrome P450 2C9 (Homo sapiens) for the following compound: `O=C(NCc1ccc(Cl)cc1)c1cc2c(nc3sccn32)s1`
OUTPUT: 17.9

INPUT: Given the entry `Clc1cccc(N=C2NN=C(c3ccc4c(c3)OCCO4)CS2)c1` , what inhibition was observed with Cytochrome P450 2C9 (Homo sapiens)?
OUTPUT: 77.7

INPUT: For the record `FC(F)(F)c1cc(-c2ccco2)nc(N2CCOCC2)n1` , what value of inhibition is listed for Cytochrome P450 2C9 (Homo sapiens)?
OUTPUT: -16.1

INPUT: Under Cytochrome P450 2C9 (Homo sapiens): inhibition value of CC(C)c1ccc(-c2noc(C3CCCN(S(C)(=O)=O)C3)n2)cc1 (stereo unspecified) ?
OUTPUT: 52.2

INPUT: For Cytochrome P450 2C9 (Homo sapiens), provide inhibition of `Cc1cc(C(C)(C)C)oc1C(=O)N(CC(=O)NC1CCCC1)Cc1ccc(Cl)cc1` please.
OUTPUT: -11.5

INPUT: Observed inhibition on Cytochrome P450 2C9 (Homo sapiens) for `CC(=O)NNc1cc(=O)c2c(=O)n(C)c(=O)n(C)c2[nH]1` , please.
OUTPUT: 6.5

INPUT: Record lookup: for Cytochrome P450 2C9 (Homo sapiens), what inhibition belongs to `Cc1ccccc1C(=O)Nc1cccc(-c2nnc(SCC(=O)O)n2C)c1` ?
OUTPUT: -11.4

INPUT: So what inhibition did CCC1(C)N(O)C(C)(C)C(c2ccc(OC)cc2)=[N+]1[O-] (stereo unspecified) get with Cytochrome P450 2C9 (Homo sapiens)?
OUTPUT: 0.3

INPUT: Entry `O=C1CCC(=O)N1CCOP1(=O)COc2ccccc2OC1` , system Cytochrome P450 2C9 (Homo sapiens): what inhibition was measured?
OUTPUT: -19.3

INPUT: Lab request: please report inhibition under test system Cytochrome P450 2C9 (Homo sapiens) for `O=c1cc(Cn2nnc(-c3ccc(Cl)cc3)n2)nc2sccn12`
OUTPUT: 63.5

INPUT: Request - read-out inhibition | tested on Cytochrome P450 2C9 (Homo sapiens) | compound COc1cc(-c2noc(C3CCCN(S(=O)(=O)c4cccc(Cl)c4)C3)n2)cc(OC)c1OC (stereo unspecified)
OUTPUT: 85.3

INPUT: Provide the documented inhibition with Cytochrome P450 2C9 (Homo sapiens) as the system for `CC(C)NC(=O)NC(=O)COC(=O)c1ccc(NC(=O)CC#N)cc1`
OUTPUT: -14.6

INPUT: Which measured inhibition belongs to O=C1CC(c2ccccc2)CC(O)=C1C=NCCN1CCOCC1 (stereo unspecified) , tested on Cytochrome P450 2C9 (Homo sapiens)?
OUTPUT: -8.2

INPUT: Give inhibition (Cytochrome P450 2C9 (Homo sapiens)) of the following compound: `CCOC(=O)C1=C(O)CSC1=Nc1cccc(Cl)c1`
OUTPUT: 9

INPUT: For the record CCCCC(CC)C(=O)Nc1ccc(Cl)cn1 (stereo unspecified) , what value of inhibition is listed for Cytochrome P450 2C9 (Homo sapiens)?
OUTPUT: 7.6

INPUT: Report inhibition for COc1ccc(S(=O)(=O)N2CCCC(C(=O)N3CCN(C)CC3)C2)cc1C (stereo unspecified) tested on Cytochrome P450 2C9 (Homo sapiens).
OUTPUT: -24
